- Tested on: Septoria tritici
- assay: Test G: wheat leaf blotch on wheat seedlings, sprayed the day before inoculation, visual disease rating
- Format: in vivo
- condition.set: 200 ppm; 100 = 100% disease control, 0 = no control relative to controls
criterion met if Test G disease control rating is below 90%. criterion not met if not; exact matches included in criterion not met.

compound: COc1cc(F)c(-c2c(O)nc(C)n2-c2ccc(Cl)cc2)c(F)c1 [compound 672]
tested.system: Septoria tritici
assigned.class: criterion met
--
compound: COc1cc(F)c(-n2nnc(Cl)c2-c2ccc(Cl)cc2)c(F)c1 [compound 478]
tested.system: Septoria tritici
assigned.class: criterion not met
--
compound: COc1ccc(F)c(-c2c(Br)ncn2-c2ccc(C)cc2)c1F [compound 473]
tested.system: Septoria tritici
assigned.class: criterion not met
--
compound: COc1cc(Cl)c(-c2c(Cl)nc(Br)n2-c2ccc(Cl)c(F)c2)c(Cl)c1 [compound 574]
tested.system: Septoria tritici
assigned.class: criterion not met

The reported numbers originate from patent US20110045101A1.
